Data origin: patent US10245257B2

assay: Pharmacokinetic study in healthy volunteers, topical application to all 10 toenails; type: in vivo, human; conditions: human, plasma, topical, 0.42 mL/subject, healthy volunteers, Day 10 (7th daily dose), plasma, mean +/- SD; read-out: Cmax
Endpoint: Cmax (ng/mL)
Numbers only, in ng/mL.

[Q] Quick one: Cmax of C=C1CCN([C@H](C)[C@](O)(Cn2cncn2)c2ccc(F)cc2F)CC1 [efinaconazole] ?
[A] 0.542

====

test: Pharmacokinetic study in severe onychomycosis patients, once daily for 28 days; type: in vivo, human; conditions: both sexes, human, plasma, topical, 0.42 mL/subject, onychomycosis patients, Day 1, plasma, mean +/- SD
Endpoint: Cmax (ng/mL)
Give bare numbers, in ng/mL.

[Q] Quick one: Cmax of C=C1CCN([C@H](C)[C@](O)(Cn2cncn2)c2ccc(F)cc2F)CC1 ?
[A] 0.23
